Test system: human M2 macrophages
Experiment: Inhibition of human M2 macrophage activity, hCCL22 in culture supernatant by ELISA
Format: cell-based
Settings: Macrophage, hCCL22 inhibitory activity at 10 μM, 72 hours
Classification field: enter rule met for inhibition at 10 µM values not below 80%, rule not met for values below it.

Task: Identify whether the reported inhibition at 10 µM of the following compound is 80% or greater: CC(=O)c1ccc(-n2c(=O)n3n(c2=O)C2C(=CC3)C(CF)(CF)Oc3cc(O)ccc32)cc1 (stereo not shown)
Result: rule not met

Task: Identify whether the reported inhibition at 10 µM of the following compound is 80% or greater: CC(=O)c1ccc(-n2c(=O)n3n(c2=O)C2C(=CC3)C(C)(C)Oc3cc(NS(N)(=O)=O)ccc32)cc1 (stereo not shown)
Result: rule not met

Task: Identify whether the reported inhibition at 10 µM of the following compound is 80% or greater: CC(=O)Nc1ccc2c(c1)OC(C)(C)C1=CCn3c(=O)n(-c4ccc(C(C)=O)cc4)c(=O)n3C12 (stereo not shown)
Result: rule not met

Task: Identify whether the reported inhibition at 10 µM of the following compound is 80% or greater: CC(=O)c1ccc(-n2c(=O)n3n(c2=O)C2C(=CC3)C(C)(C)Oc3cc(N4CCC4)ccc32)cc1 (stereo not shown)
Result: rule met

Task: Identify whether the reported inhibition at 10 µM of the following compound is 80% or greater: CC(=O)c1ccc(-n2c(=O)n3n(c2=O)C2C(=CC3)C(C)(C)Oc3cc(N)ccc32)cc1 (stereo not shown)
Result: rule met

Further cases:
Task: Identify whether the reported inhibition at 10 µM of the following compound is 80% or greater: CC(=O)c1ccc(-n2c(=O)n3n(c2=O)C2C(=CC3)C(C)(C)Oc3cc(NC(C)C)ccc32)cc1 (stereo not shown)
Result: rule met
